B1: NF2 (merlin) isoform 7, human, full length (507 aa, lacks exons 2-3 = isoform-1 residues 39-121; exon-16 C-terminus), P35240-4 (parent)
chain: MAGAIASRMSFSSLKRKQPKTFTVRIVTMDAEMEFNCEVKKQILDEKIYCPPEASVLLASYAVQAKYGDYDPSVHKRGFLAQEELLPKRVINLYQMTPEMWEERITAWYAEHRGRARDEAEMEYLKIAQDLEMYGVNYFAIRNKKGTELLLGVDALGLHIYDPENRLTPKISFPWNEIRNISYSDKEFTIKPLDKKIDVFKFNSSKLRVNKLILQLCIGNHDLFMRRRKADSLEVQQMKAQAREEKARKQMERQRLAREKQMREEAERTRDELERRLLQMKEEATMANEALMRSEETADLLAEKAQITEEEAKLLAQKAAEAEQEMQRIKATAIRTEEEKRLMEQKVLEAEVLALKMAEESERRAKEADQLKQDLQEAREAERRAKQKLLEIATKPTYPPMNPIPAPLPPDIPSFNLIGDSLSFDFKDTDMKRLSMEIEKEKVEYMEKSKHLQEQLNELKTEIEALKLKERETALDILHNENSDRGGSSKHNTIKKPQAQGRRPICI

Variants of: B1
Assay: reverse yeast two-hybrid deep mutational scan (rY2H-seq): NF2 isoform 7 mutant library as bait mated with wild-type prey strains; selection on medium lacking adenine for non-interacting pairs; NextSeq paired-end sequencing; enrichment vs …
Details: with KDM1A (lysine-specific histone demethylase 1A; the table's label AOF2 is a gene synonym of KDM1A), O60341; yeast diploids after mating (RBait_S3 x RPrey_S3), 30 °C, selection for reporter genes on NB agar; human ABL2 co-expressed as the kinase-dead K35M mutant …; HIGHER = WEAKER BINDING (the opposite of display enrichments): higher = stronger loss of interaction: reverse Y2H selects yeast in which bait and prey do NOT interact (growth without adenine), so a …; hits-only table; scale: rY2H score; numbering: uniprot, sequence starts at 1
readout kind: enrichment

I: E339T
II: A247E
Req: Field: lower enrichment | Options: I / II Indicate your choice by writing its label.
Resp: I

P: P396L
Q: E338L
Req: Please tell me which of the two, P or Q , has the higher reported enrichment value. State your choice using its label.
Resp: Q
(Q: 5.57, P: 2.88)
